test system: SR; experiment: NCI tumour cell line growth inhibition, 48 h
The source made the active and inactive calls. Rule as the data show it: active = GI50 up to about 1.1 µM and inactive = higher.
Exercise: state measured GI50 for each of the compounds provided.

Q: Name the reported GI50 value associated with the compound Cc1nnc2n1-c1ccccc1-c1[nH]c3ccccc3c1C2
A: 22.8 µM (inactive)

Q: Please give the measured GI50 for this compound: Cc1ccc(-c2cnc(NC3OC(COC(=O)c4ccccc4)C(OC(=O)c4ccccc4)C(OC(=O)c4ccccc4)C3OC(=O)c3ccccc3)s2)cc1 (stereo not given)
A: > 100 µM (inactive)

Q: Fill in: GI50 of O=C(NOC(=O)c1ccc([N+](=O)[O-])cc1)c1ccc(Cl)cc1 is ___
A: > 100 µM (inactive)

Q: Can you share its GI50? I mean this compound: Cc1[nH]c(=O)nc(N(CCO)/N=C/c2ccccc2Cl)c1C(=O)Nc1cc(Cl)cc(Cl)c1
A: 46.1 µM (inactive)

Q: I would be grateful if you could share the reported GI50 for Cn1c(=O)c(C(=O)NC23CC4CC(CC(C4)C2)C3)c(O)c2ccccc21 .
A: > 100 µM (inactive)

Q: Requested read-out: GI50. Entry: O=C(Sc1n[nH]c(=O)[nH]c1=O)c1cccc2nc3ccccc3nc12
A: > 100 µM (inactive)

Q: So what does the record say about GI50 for O=C(O)/C(=C\c1ccccc1Cl)S(=O)(=O)c1ccccc1 ?
A: > 10 µM (inactive)

Q: // returns reported GI50 for input CCOC(=O)NC1C2CC(=O)OC(O2)C1OC(C)=O (stereo not given)
A: > 100 µM (inactive)

Q: Requested read-out: GI50. Entry: CCCNC1CC(n2cc(C)c(=O)[nH]c2=O)OC1CO (stereo not given)
A: > 100 µM (inactive)

Q: Give the measured GI50 of CCCC(=O)N[C@@H](Cc1cc(I)c(O)c(I)c1)C(=O)NCCCNCCCCNCCCNC(=O)[C@@H](N)CCCN=C(N)N .
A: > 100 µM (inactive)

Q: Which measured GI50 value corresponds to CN(CCO)c1nc2c(c(=O)[nH]1)CNCC2 ?
A: > 100 µM (inactive)

Q: Tell me the measured GI50 of N/C(S)=N/N=C/c1cc(CN2CCOCC2)c(N)cn1 , please.
A: 44.4 µM (inactive)

Q: Which GI50 is listed for O=[N+]([O-])c1ccc(C2NC(=S)NC3c4cc([N+](=O)[O-])ccc4CCCC23)cc1 (stereo not given) ?
A: > 100 µM (inactive)

Q: Field request: GI50 | item: COc1ccc2c(O)c3[n+](cc2c1OC)CCc1cc2c(cc1-3)OCO2
A: 39.3 µM (inactive)

Q: Can you share its GI50? I mean this compound: CC(C)(C)[Si](C)(C)OCC1OC(n2cc(I)c(=O)[nH]c2=O)C(O[Si](C)(C)C(C)(C)C)C1O[Si](C)(C)C(C)(C)C (stereo not given)
A: 28.1 µM (inactive)

Q: # get_value(readout='GI50', item= Cc1c(N2C(=O)/C(=C/c3ccc(N(CCC#N)CCC#N)cc3)N=C2c2ccccc2)c(=O)n(-c2ccccc2)n1C )
A: > 100 µM (inactive)

Q: Name the reported GI50 value associated with the compound COc1ccc(C2NC(=S)Nc3c2c(=O)oc2c3ccc3ccccc32)cc1 (stereo not given)
A: 48.4 µM (inactive)

Q: Which GI50 value belongs to Cn1c(=S)c2nc(SCc3cccnc3)[nH]c2n(C)c1=O ?
A: > 100 µM (inactive)

Q: Endpoint output: GI50 of C=C1C(=O)O[C@@H]2O[C@@]3(C)CC[C@H]4[C@H](C)CC[C@@H]1[C@@]24O3 . Value?
A: 7.18 µM (inactive)

Q: Please look up its GI50: COC(=O)CC1(O)C(C=C(C)C)C(C(=O)OC)C(=O)C(C(=O)OC)C1C(=O)OC (stereo not given)
A: > 100 µM (inactive)

Q: I'd like to know its GI50. The compound in question is Nc1nc2ccc3ccccc3c2[nH]1
A: > 10 µM (inactive)

Q: # input compound: O=C(O)CCc1nc(-c2ccccc2)c(-c2ccccc2)o1 ; wanted: its GI50
A: > 100 µM (inactive)

Q: Using the record for N#C/C(=C\c1cn(Cc2ccccc2)c2ccccc12)c1nn(-c2ccccc2)c(N)c1C#N , report its GI50.
A: 24.7 µM (inactive)

Q: What value of measured GI50 is listed for CN(C)CC[N+]1=Nc2cccc3cccc(c23)N1 ?
A: 19.8 µM (inactive)

Q: Reported GI50 for O=C(O)c1cc2c(s1)C(=O)c1sccc1C2=O : what is it?
A: 2.81 µM (inactive)

Q: Tell me the measured GI50 of O=C1NN=C2C=C(c3ccc(Cl)cc3)CC(c3cccc(Br)c3)C12 (stereo not given) , please.
A: 38.3 µM (inactive)

Q: Entry under review: c1ccc(Cc2cccc3cc(-c4ccc(-c5ccccc5)cc4)[nH]c23)cc1 . Reported GI50?
A: 16.9 µM (inactive)

Q: # lookup: GI50 of O=S(=O)(O)c1cc(/N=N/c2cc(S(=O)(=O)O)c3ccccc3c2O)ccc1/C=C/c1ccc(/N=N/c2cc(S(=O)(=O)O)c3ccccc3c2O)cc1S(=O)(=O)O
A: 27 µM (inactive)

Q: What value of GI50 has been recorded for this entry: CC(Br)C(=O)NN1C2=C(Nc3ccccc31)c1cccc3cccc2c13 (stereo not given)
A: 41 µM (inactive)

Q: Form field: reported GI50 of CCCCCCCC/C=C\CCCCCCC(F)C(=O)O (stereo not given)
A: > 12.5 µM (inactive)

Q: Could you share which GI50 value was measured for CC(=O)OCC1(C)C(O)CCC2(C)C1CCC1CC3CC12CCC3(O)CO (stereo not given) ?
A: 4.42 µM (inactive)

Q: Would you kindly share the measured GI50 for O=C(CCCn1cnc([N+](=O)[O-])n1)NCCn1ccnc1[N+](=O)[O-] ?
A: > 100 µM (inactive)

Q: What value of GI50 has been recorded for this entry: CCNC(=S)NNC(=O)c1nsc2ccccc12
A: 64 µM (inactive)

Q: Data request, read-out GI50, for CC1=NN(C(=O)CSc2nc3ccc(I)cc3c(=O)n2Cc2ccccc2)C(=O)C1
A: 16.9 µM (inactive)

Q: Which GI50 value is on record for O=S(=O)(O)Oc1cc2c(c(OS(=O)(=O)O)c1)C[C@H](OS(=O)(=O)O)[C@@H](c1ccc(OS(=O)(=O)O)c(OS(=O)(=O)O)c1)O2 ?
A: > 100 µM (inactive)

Q: Please report the recorded GI50 for O=C(N/N=C\c1cccc2c([N+](=O)[O-])cccc12)Nc1ccccc1 .
A: 11.3 µM (inactive)

Q: Find the recorded GI50 belonging to CN(C)CCNC1=Nc2ccccc2C(=O)N2CSCC12 (stereo not given) and report it.
A: > 100 µM (inactive)

Q: Entry O=P1(Cc2ccccc2)c2ccccc2-c2ccccc21 : reported GI50 = ?
A: 3.89 µM (inactive)

Q: May I ask what GI50 has been recorded for Cc1cccc2c(=O)c3c(O)cc(O)cc3n(C)c12 ?
A: > 100 µM (inactive)

Q: What value of GI50 has been reported for the following compound? CC[C@@]1(C)CCC2c3ccc(O)cc3CC[C@H]2C1C (stereo not given in full)
A: 14.3 µM (inactive)
